Reported values of Primary Screen Efficacy for individual entries
- assaySystem: human CAR (hCAR) (Homo sapiens)
- assayOverview: hCAR luciferase reporter qHTS, agonist mode (HepG2-CYP2B6-hCAR cells, PK11195 co-treatment)
- cond: agonist mode, primary qHTS, relative to CITCO Emax (100%)
Give just the number in %; leave the unit off.

compound	Primary Screen Efficacy / %
Clc1ccc(Nc2nnc(Cc3ccncc3)c3ccccc23)cc1 [Vatalanib]	68
NNCCc1ccccc1 [Phenelzine]	145
COc1cc(N)c(Cl)cc1C(=O)NC1CCN(Cc2ccccc2)CC1 [Clebopride]	52
CN1CCc2cccc3c2[C@H]1Cc1ccc(O)c(O)c1-3 [Apomorphine]	21
Nc1ccc(Cl)cc1C(=O)c1ccccc1F [2-Amino-5-chloro-2’-fluorobenzophenone]	60

Memo: CC(COc1ccccc1)N(CCCl)Cc1ccccc1 (stereo not drawn) [Phenoxybenzamine] , reported Primary Screen Efficacy: 57

Memo: CCCCNc1c(C(=O)OCC)c(C)nc2c1cnn2CC [Tracazolate] , reported Primary Screen Efficacy: 27

Memo: CCO[C@H]1O[C@@H]2O[C@@]3(C)CC[C@H]4[C@H](C)CC[C@@H]([C@H]1C)[C@@]24OO3 [Artemotil] , reported Primary Screen Efficacy: 33

Memo: O=c1cc(-c2ccccc2)oc2ccccc12 [Flavone] , reported Primary Screen Efficacy: 184

* * *

- assaySystem: human CAR (hCAR) (Homo sapiens, UniProt Q14994)
- Sequence (Q14994 1-348 isoform Q14994-2): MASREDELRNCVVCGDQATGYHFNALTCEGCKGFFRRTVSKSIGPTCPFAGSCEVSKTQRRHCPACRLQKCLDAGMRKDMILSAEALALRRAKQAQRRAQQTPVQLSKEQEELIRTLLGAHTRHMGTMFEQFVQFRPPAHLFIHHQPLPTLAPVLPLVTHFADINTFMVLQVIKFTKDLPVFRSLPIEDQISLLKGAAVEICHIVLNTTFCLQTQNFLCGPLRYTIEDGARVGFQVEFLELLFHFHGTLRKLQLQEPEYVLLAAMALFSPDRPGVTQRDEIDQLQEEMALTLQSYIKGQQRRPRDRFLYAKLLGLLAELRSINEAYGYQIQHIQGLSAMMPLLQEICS
- assayOverview: hCAR luciferase reporter qHTS, antagonist mode (HepG2-CYP2B6-hCAR cells, CITCO co-treatment)
- cond: Follow-up Confirmation Potency (IC50), antagonist mode, follow-up cherry-pick, 11-point titration
parameterMeasured: IC50 (nM)
Give just the number in nM; leave the unit off.

smilesData	parameterMeasured	resultUnits	assayResult
CC(C)C[C@H](NC(=O)[C@H](Cc1ccccc1)NC(=O)c1cnccn1)B(O)O	IC50	nM	30

Case Nc1ncnc2c1ncn2CCOCP(=O)(O)O , human CAR (hCAR) (Homo sapiens, UniProt Q14994), IC50 recorded as 770

Case C[C@@H]1O[C@@H](O[C@H]2C[C@@H](O)[C@]3(CO)[C@H]4[C@H](O)C[C@]5(C)[C@@H](C6=CC(=O)OC6)CC[C@]5(O)[C@@H]4CC[C@]3(O)C2)[C@H](O)[C@H](O)[C@H]1O , human CAR (hCAR) (Homo sapiens, UniProt Q14994), IC50 recorded as 470

Case C[C@H]1O[C@@H](O[C@H]2[C@@H](O)C[C@H](O[C@H]3[C@@H](O)C[C@H](O[C@H]4CC[C@@]5(C)[C@H](CC[C@@H]6[C@@H]5CC[C@]5(C)[C@@H](C7=CC(=O)OC7)CC[C@]65O)C4)O[C@@H]3C)O[C@@H]2C)C[C@H](O)[C@@H]1O , human CAR (hCAR) (Homo sapiens, UniProt Q14994), IC50 recorded as 290

* * *

Reported values of pIC50 for individual entries
- assaySystem: human CAR (hCAR) (Homo sapiens, UniProt Q14994)
- assayOverview: hCAR luciferase reporter qHTS, antagonist mode (HepG2-CYP2B6-hCAR cells, CITCO co-treatment);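 further: stable HepG2 line carrying hCAR plus a CYP2B6 promoter (PBREM/XREM) luciferase reporter, 1536-well format, 24 h compound exposure at 37 °C, then luminescence read with ONE-Glo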
- cond: Follow-up Confirmation Potency (IC50), antagonist mode, follow-up cherry-pick, 11-point titration
The value called pIC50 is obtained by taking minus log10 of the concentration in mol/L.

Memo: Cc1c(O)cccc1C(=O)N[C@@H](CSc1ccccc1)[C@H](O)CN1C[C@H]2CCCC[C@H]2C[C@H]1C(=O)NC(C)(C)C [Nelfinavir] , reported pIC50: 4.96

Memo: CC[C@@]1(O)C(=O)OCc2c1cc1n(c2=O)Cc2cc3c(CN(C)C)c(O)ccc3nc2-1 [Topotecan] , reported pIC50: 6.44

Memo: CO[C@@]12[C@H](COC(N)=O)C3=C(C(=O)C(C)=C(N)C3=O)N1C[C@@H]1N[C@@H]12 [Mitomycin C] , reported pIC50: 6.12

Memo: O=c1[nH]c(=O)n([C@H]2C[C@H](O)[C@@H](CO)O2)cc1C(F)(F)F [Trifluridine] , reported pIC50: 5.35
